target: DYRK3 (human) (UniProt O43781); assay: radiometric filter-binding kinase assay; details: compound 0.1 µM
Sequence (O43781 whole entry, looked up): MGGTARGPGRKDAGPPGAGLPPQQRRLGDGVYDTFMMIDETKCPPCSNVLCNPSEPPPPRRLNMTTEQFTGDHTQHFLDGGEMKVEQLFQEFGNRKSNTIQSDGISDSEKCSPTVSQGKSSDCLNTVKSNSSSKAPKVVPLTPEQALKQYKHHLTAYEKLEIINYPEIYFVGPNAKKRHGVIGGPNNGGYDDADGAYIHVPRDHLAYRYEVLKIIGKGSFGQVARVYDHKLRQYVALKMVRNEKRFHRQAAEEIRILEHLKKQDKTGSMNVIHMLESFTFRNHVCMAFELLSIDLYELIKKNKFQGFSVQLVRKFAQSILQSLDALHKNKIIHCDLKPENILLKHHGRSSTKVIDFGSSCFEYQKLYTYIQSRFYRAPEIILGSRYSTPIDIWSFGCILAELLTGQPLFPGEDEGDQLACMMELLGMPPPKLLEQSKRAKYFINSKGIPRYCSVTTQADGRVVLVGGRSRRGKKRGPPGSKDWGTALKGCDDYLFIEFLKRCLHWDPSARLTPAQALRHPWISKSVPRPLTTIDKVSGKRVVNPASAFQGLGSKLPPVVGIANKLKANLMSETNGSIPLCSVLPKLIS
Quantity Name: residual activity (%)

structure_smiles=O=C(NCCCNc1nc(Nc2cccc(CN3CCOCC3)c2)ncc1C1CC1)C1CCC1 tested_on="DYRK3 (human) (UniProt O43781)" value_unit=% test_value=91
structure_smiles=Cc1ccc(Sc2cnc(Nc3cccc(Br)n3)s2)cc1C(=O)N1CCN(C(=O)CN)CC1 tested_on="DYRK3 (human) (UniProt O43781)" value_unit=% test_value=89
structure_smiles=COc1ccc(N(C(=O)Nc2c(C)cccc2C)c2cc(Nc3ccc(N4CCN(C)CC4)cc3)ncn2)c(OC)c1 tested_on="DYRK3 (human) (UniProt O43781)" value_unit=% test_value=92

----------
target: MARK2 (human) (UniProt Q7KZI7); assay: radiometric filter-binding kinase assay; details: compound 0.1 µM
Sequence (Q7KZI7 whole entry, looked up): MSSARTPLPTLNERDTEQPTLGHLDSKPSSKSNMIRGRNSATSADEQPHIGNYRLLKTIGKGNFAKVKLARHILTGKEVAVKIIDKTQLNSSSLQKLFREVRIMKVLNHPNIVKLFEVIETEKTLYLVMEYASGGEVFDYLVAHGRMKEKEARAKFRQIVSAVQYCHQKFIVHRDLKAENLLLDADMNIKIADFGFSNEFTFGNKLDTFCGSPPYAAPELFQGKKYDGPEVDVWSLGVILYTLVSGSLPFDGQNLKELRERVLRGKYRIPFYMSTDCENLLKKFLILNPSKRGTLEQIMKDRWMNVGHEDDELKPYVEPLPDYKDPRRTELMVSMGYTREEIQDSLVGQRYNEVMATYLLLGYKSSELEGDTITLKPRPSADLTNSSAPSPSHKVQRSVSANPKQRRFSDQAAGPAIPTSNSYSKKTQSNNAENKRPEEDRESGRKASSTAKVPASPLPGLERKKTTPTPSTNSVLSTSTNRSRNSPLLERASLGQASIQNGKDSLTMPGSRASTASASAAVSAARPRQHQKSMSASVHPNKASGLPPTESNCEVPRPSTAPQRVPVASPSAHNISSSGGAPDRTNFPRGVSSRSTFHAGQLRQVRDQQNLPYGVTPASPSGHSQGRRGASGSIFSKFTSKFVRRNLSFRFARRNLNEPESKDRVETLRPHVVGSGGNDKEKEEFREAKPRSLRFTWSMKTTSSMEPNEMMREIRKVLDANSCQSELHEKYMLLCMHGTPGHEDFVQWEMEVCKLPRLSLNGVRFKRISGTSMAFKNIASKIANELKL
Quantity Name: residual activity (%)

structure_smiles=COc1ccc(-n2ncc3cnc(Nc4cc(OC)c(OC)c(OCCCN5CCN(C)CC5)c4)nc32)cc1 value_unit=% test_value=67
structure_smiles=NC(=O)c1cc(-c2ccnc(NC3CCCCC3)c2)nc(N2CCNCC2)c1 value_unit=% test_value=97
structure_smiles=C=CC(=O)N1CCC[C@@H](n2nc(-c3ccc(Oc4ccccc4)cc3)c3c(N)ncnc32)C1 value_unit=% test_value=88

----------
target: UniProtKB O75716; assay: radiometric filter-binding kinase assay; settings: compound 1.0 µM
Sequence (O75716 whole entry, looked up): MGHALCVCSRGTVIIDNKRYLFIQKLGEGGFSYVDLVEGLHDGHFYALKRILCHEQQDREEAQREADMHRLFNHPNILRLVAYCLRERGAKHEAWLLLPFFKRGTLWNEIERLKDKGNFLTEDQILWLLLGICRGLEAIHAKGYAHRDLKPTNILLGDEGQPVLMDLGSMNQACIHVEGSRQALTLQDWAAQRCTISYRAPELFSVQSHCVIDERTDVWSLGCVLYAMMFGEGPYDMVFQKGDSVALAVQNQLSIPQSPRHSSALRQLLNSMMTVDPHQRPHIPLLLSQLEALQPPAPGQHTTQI
Quantity Name: residual activity (%)

I = COc1cc(C(=O)N2CCOCC2)c(F)cc1Nc1ncc(C(F)(F)F)c(NC2CC2)n1
II = COc1ccc(-n2ncc3cnc(Nc4cc(OC)c(OC)c(OCCCN5CCN(C)CC5)c4)nc32)cc1
III = CNC(=O)C1[C@H]2O[C@@](C)([C@@H]1N)n1c3ccccc3c3c4c(c5c6ccccc6n2c5c31)C(=O)NC4 (some centres undefined)
Please produce an ascending ranking of these compounds based on residual activity. Write the labels out in the order the request specifies.
II, III, I

----------
target: NTRK1 (human) (UniProt P04629); test: radiometric filter-binding kinase assay; conditions: compound 0.1 µM
Sequence (P04629 whole entry, looked up): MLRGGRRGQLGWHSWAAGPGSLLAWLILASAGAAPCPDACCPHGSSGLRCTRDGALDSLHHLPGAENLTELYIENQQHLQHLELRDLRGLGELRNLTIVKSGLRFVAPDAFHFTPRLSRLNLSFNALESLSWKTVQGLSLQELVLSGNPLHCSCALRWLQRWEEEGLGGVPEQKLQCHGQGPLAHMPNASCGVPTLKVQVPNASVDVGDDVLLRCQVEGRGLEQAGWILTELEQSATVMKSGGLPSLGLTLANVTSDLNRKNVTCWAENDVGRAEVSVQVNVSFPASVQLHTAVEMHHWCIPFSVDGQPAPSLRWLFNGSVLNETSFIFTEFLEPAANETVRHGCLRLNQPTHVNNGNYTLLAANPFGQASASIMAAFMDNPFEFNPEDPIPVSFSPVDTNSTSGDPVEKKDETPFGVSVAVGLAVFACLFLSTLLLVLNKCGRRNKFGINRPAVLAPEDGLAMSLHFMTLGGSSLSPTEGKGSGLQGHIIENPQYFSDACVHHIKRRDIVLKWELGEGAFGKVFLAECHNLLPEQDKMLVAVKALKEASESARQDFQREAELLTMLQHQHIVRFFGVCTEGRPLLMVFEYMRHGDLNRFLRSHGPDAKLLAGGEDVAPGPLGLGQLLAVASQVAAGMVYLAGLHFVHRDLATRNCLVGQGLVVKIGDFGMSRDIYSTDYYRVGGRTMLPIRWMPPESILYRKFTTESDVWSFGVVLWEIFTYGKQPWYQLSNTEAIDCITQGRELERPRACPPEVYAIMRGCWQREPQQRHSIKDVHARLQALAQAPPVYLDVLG
Quantity Name: residual activity (%)

Answered cases to consult:
compound=c1ccc2c(-c3cnn4cc(-c5ccc(N6CCNCC6)cc5)cnc34)ccnc2c1 quantity_name="residual activity" test_value=87
compound=CN1CCN(CCOc2cc(OC3CCOCC3)c3c(Nc4c(Cl)ccc5c4OCO5)ncnc3c2)CC1 quantity_name="residual activity" test_value=93
compound=O=C(Nc1nc2cc(C(F)(F)F)cc(NC3CC3)n2n1)c1cccnc1 quantity_name="residual activity" test_value=83
compound="CNC(=O)C1[C@H]2O[C@@](C)([C@@H]1N)n1c3ccccc3c3c4c(c5c6ccccc6n2c5c31)C(=O)NC4 (stereo partly drawn)" quantity_name="residual activity" test_value=3
compound=O=C(NCCCNc1nc(Nc2cccc(CN3CCOCC3)c2)ncc1C1CC1)C1CCC1 quantity_name="residual activity" test_value=84

a = CCn1c(-c2nonc2N)nc2cncc(CNC3CCNCC3)c21
b = COc1cc(O)c2c(c1)/C=C/C[C@H](O)[C@H](O)C(=O)/C=C\C[C@H](C)OC2=O
c = O=C(O)c1ccc(-c2c[nH]c3ncc(-c4ccccc4)cc23)cc1C1CCCC1
d = NC(=O)c1cc(-c2ccnc(NC3CCCCC3)c2)nc(N2CCNCC2)c1
e = Cc1ccc(Sc2cnc(Nc3cccc(Br)n3)s2)cc1C(=O)N1CCN(C(=O)CN)CC1
Sort the compounds on residual activity; start with the lowest figure. Write the labels out in the order the request specifies.
e, c, b, d, a
(e: 14%, c: 29%, b: 46%, d: 72%, a: 104%)

----------
target: YES1 (human); experiment: radiometric filter-binding kinase assay; settings: compound 0.1 µM
Quantity Name: residual activity (%)

Answered cases to consult:
compound=CN1CCN(CCOc2cc(OC3CCOCC3)c3c(Nc4c(Cl)ccc5c4OCO5)ncnc3c2)CC1 test_value=4
compound=COc1ccc(N(C(=O)Nc2c(C)cccc2C)c2cc(Nc3ccc(N4CCN(C)CC4)cc3)ncn2)c(OC)c1 test_value=11
compound=Cc1ccc(Sc2cnc(Nc3cccc(Br)n3)s2)cc1C(=O)N1CCN(C(=O)CN)CC1 test_value=11

1 = NC(=O)c1cc(-c2ccnc(NC3CCCCC3)c2)nc(N2CCNCC2)c1
2 = CNC(=O)C1[C@H]2O[C@@](C)([C@@H]1N)n1c3ccccc3c3c4c(c5c6ccccc6n2c5c31)C(=O)NC4 (some centres not stated)
Which of the two items, 1 and 2 , has the greater recorded residual activity? Identify your selection by its label.
1

A = O=C(Nc1ccccc1-c1cn2c(CN3CCNCC3)csc2n1)c1cnc2ccccc2n1
B = NC(=O)Nc1ccc2c(c1)/C(=C/c1cc(-c3cccnc3)c[nH]1)C(=O)N2
C = NC1(c2ccc(-c3nc4ccn5c(=O)[nH]nc5c4cc3-c3ccccc3)cc2)CCC1
D = COc1ccc(-n2ncc3cnc(Nc4cc(OC)c(OC)c(OCCCN5CCN(C)CC5)c4)nc32)cc1
Ranking field: residual activity; order: falling. Write the labels out in the order the request specifies.
C, A, B, D
(C: 102%, A: 69%, B: 32%, D: 16%)

----------
molecular target: CSNK1G2 (human) (UniProt P78368); test: radiometric filter-binding kinase assay; conditions: compound 1.0 µM
Sequence (P78368 whole entry, looked up): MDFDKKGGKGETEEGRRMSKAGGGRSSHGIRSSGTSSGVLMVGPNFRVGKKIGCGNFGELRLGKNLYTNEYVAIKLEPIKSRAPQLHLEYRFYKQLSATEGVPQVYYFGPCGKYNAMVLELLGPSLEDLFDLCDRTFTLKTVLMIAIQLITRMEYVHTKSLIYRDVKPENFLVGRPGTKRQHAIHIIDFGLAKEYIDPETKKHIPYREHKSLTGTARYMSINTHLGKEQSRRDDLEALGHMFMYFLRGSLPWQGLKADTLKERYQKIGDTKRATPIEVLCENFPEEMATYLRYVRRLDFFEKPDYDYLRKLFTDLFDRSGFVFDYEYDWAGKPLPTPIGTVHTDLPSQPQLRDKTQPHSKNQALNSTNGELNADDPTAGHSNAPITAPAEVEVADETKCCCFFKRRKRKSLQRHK
Quantity Name: residual activity (%)

compound=COc1cc(C(=O)N2CCOCC2)c(F)cc1Nc1ncc(C(F)(F)F)c(NC2CC2)n1 quantity_name="residual activity" test_value=90
compound="CC1=C(CO)C(=O)O[C@@H]([C@@H](C)[C@H]2CC[C@H]3[C@@H]4C[C@H]5O[C@]56[C@@H](O)C=CC(=O)[C@]6(C)C4CC[C@]23C)C1 (stereo partly drawn)" quantity_name="residual activity" test_value=104
compound="Nc1cccc2c1CN(C1CCC(=O)NC1=O)C2=O (stereo not drawn)" quantity_name="residual activity" test_value=99

----------
molecular target: FLT1 (human) (UniProt P17948); assay: radiometric filter-binding kinase assay; conditions: compound 0.1 µM
Sequence (P17948 whole entry, looked up): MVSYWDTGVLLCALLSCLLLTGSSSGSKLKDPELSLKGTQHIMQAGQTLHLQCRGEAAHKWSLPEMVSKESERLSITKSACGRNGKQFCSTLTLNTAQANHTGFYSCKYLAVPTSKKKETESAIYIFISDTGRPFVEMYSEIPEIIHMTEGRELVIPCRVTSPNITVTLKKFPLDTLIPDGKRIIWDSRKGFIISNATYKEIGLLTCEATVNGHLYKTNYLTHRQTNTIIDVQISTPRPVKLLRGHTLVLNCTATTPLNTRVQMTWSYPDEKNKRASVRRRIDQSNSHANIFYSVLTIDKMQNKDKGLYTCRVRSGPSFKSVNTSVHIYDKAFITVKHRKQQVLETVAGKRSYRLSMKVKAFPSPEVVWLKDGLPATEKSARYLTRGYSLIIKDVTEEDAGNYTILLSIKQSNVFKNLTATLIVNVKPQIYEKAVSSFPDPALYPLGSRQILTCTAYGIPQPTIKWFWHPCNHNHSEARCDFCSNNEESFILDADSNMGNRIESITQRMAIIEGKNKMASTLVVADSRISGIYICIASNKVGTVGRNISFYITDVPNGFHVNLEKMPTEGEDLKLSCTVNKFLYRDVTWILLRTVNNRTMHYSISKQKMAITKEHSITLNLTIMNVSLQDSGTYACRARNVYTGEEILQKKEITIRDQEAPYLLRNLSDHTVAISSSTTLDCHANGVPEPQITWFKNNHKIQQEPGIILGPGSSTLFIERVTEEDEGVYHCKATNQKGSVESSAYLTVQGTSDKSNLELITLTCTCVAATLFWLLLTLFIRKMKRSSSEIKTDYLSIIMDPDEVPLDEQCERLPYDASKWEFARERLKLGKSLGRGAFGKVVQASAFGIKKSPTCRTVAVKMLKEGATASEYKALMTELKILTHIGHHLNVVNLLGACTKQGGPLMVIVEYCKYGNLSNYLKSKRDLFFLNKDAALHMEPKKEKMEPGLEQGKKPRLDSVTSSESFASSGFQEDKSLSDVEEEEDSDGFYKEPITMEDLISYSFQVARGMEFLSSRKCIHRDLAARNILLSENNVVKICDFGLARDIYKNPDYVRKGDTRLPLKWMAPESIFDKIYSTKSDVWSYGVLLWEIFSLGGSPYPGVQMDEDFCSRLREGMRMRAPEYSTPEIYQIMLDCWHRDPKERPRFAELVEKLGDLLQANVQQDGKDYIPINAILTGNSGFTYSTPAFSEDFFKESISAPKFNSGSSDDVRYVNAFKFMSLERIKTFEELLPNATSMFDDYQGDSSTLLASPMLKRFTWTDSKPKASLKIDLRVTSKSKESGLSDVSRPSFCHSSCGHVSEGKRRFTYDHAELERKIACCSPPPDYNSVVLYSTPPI
Quantity Name: residual activity (%)

1 = CC1=C(CO)C(=O)O[C@@H]([C@@H](C)[C@H]2CC[C@H]3[C@@H]4C[C@H]5O[C@]56[C@@H](O)C=CC(=O)[C@]6(C)C4CC[C@]23C)C1 (some centres undefined)
2 = COc1ccc(-n2ncc3cnc(Nc4cc(OC)c(OC)c(OCCCN5CCN(C)CC5)c4)nc32)cc1
3 = COc1cc(O)c2c(c1)/C=C/C[C@H](O)[C@H](O)C(=O)/C=C\C[C@H](C)OC2=O
4 = Cc1ccc(Sc2cnc(Nc3cccc(Br)n3)s2)cc1C(=O)N1CCN(C(=O)CN)CC1
Order the records so the highest residual activity appears first and the lowest last. Write the labels out in the order the request specifies.
1, 4, 3, 2
(1: 120%, 4: 56%, 3: 8%, 2: 5%)

A = NC(=O)c1cc2c(-c3cccc(-c4ccccc4)c3)cnc(N)c2s1
B = CNC(=O)C1[C@H]2O[C@@](C)([C@@H]1N)n1c3ccccc3c3c4c(c5c6ccccc6n2c5c31)C(=O)NC4 (some centres undefined)
Sorting ascending by residual activity, which comes first: A or B ? Identify your selection by its label.
B
(B: 13%, A: 100%)

a = CCc1cncnc1N1CCN(Cc2nc3cc(C(F)(F)F)ccc3[nH]2)CC1
b = C/C(=C1/C(=O)Nc2ccc(NC(N)=O)cc21)c1ccc[nH]1
Sorting ascending by residual activity, which comes first: a or b ? Identify your selection by its label.
b

----------
target: UniProtKB P43405; test: radiometric filter-binding kinase assay; conditions: compound 10.0 µM
Quantity Name: residual activity (%)

Answered cases to consult:
compound=O=S(=O)(c1ccc(F)c2nonc12)N1CCN(c2ncc(C(F)(F)F)cc2Cl)CC1 test_value=94
compound=NC(=O)c1cc(-c2ccnc(NC3CCCCC3)c2)nc(N2CCNCC2)c1 test_value=92
compound=Oc1ccc(/C=C/c2cc(O)cc(O)c2)cc1 test_value=92

a = O=C(Nc1cccnc1)c1cc(-c2ccnc(F)c2)ccc1OCc1ccccc1
b = NCC(=O)Nc1ccc(-n2nc(C(F)(F)F)cc2-c2ccc3c(ccc4ccccc43)c2)cc1
c = NC(=O)c1cc2c(-c3cccc(-c4ccccc4)c3)cnc(N)c2s1
d = NC(=O)Nc1ccc2c(c1)/C(=C/c1cc(-c3cccnc3)c[nH]1)C(=O)N2
Ranking field: residual activity; order: falling. Write the labels out in the order the request specifies.
a, b, c, d

P = CC1=C(CO)C(=O)O[C@@H]([C@@H](C)[C@H]2CC[C@H]3[C@@H]4C[C@H]5O[C@]56[C@@H](O)C=CC(=O)[C@]6(C)C4CC[C@]23C)C1 (some centres not stated)
Q = Cc1ccc(-c2ccc3c(ccc4sc5c(c43)NC[C@@H](C)NC5=O)n2)cn1
Which of the two items, P and Q , has the greater recorded residual activity? Identify your selection by its label.
P

The reported measurements were obtained from the kinase profiling compilation of Christmann-Franck et al. (2016).
